property_label: melting point (°C)

1. COc1nc2ccc(Br)cc2cc1C(c1ccccc1)C(O)(CCCCN1CCN(C)CC1)COCc1ccccc1 (single isomer, unassigned) [Compound 28] :: 122
2. COc1nc2ccc(Br)cc2cc1C(c1ccoc1)C(O)(CCc1ccc(F)cc1)CCN(C)C (single isomer, unassigned) [Compound 53] :: 122
3. COc1nc2ccc(Br)cc2cc1C(c1ccccc1)C(O)(CCCCN(C)C)COc1ccc(C)cc1 (single isomer, unassigned) [Compound 6] :: 130

----------
System: M. Smegmatis (ATCC607)
assay_notes: In-vitro anti-bacterial activity against strain M. Smegmatis ATCC607
Type: cell-based
condition_description: Mycolicibacterium smegmatis, ATCC607, 48 h, 90% inhibitory concentration for bacterial growth, 37° C., Alamar Blue fluorescence, read-out: IC90 values MSM 1 ATCC607
property_label: IC90 (µg/mL)
Return type: number; implicit unit µg/mL.

Can you look up the measured IC90 of COc1nc2ccc(Br)cc2cc1C(c1ccccc1)C(O)(CCCCN(C)C)c1cccc(-c2ccc(Cl)cc2)c1 (single isomer, unassigned) for me?
2.04

Can you look up the measured IC90 of COc1nc2ccc(Br)cc2cc1C(c1ccccc1)C(O)(CCCCN(C)C)c1cccc(-c2ccccc2)c1 (single isomer, unassigned) for me?
1.93

Can you look up the measured IC90 of COc1nc2ccccc2cc1C(c1ccc(-c2ccoc2)cc1)C(O)(CCCCN(C)C)c1ccc2ccccc2c1 (single isomer, unassigned) for me?
1.8

Can you look up the measured IC90 of COc1nc2ccccc2cc1C(c1cccc(-c2cnc3ccccc3c2)c1)C(O)(CCCCN(C)C)c1ccc2ccccc2c1 (single isomer, unassigned) for me?
2

Can you look up the measured IC90 of COc1nc2ccc(Br)cc2cc1C(c1ccccc1)C(O)(CCCCCN(C)C)c1cccc(-c2ccccc2)c1 (single isomer, unassigned) for me?
1.76

Can you look up the measured IC90 of COc1nc2ccc(Br)cc2cc1C(c1ccccc1)C(O)(CCCCN(C)C)COc1ccc(C)cc1 (single isomer, unassigned) for me?
1.8

----------
Test system: M. Smegmatis (ATCC607)
assay_notes: In-vitro anti-bacterial activity against strain M. Smegmatis ATCC607
Type: cell-based
condition_description: Mycolicibacterium smegmatis, ATCC607, 48 h, 90% inhibitory concentration for bacterial growth, 37° C., Alamar Blue fluorescence, read-out: IC90 values MSM 1 ATCC607
property_label: IC90 (µg/mL)
Return type: number; implicit unit µg/mL.

Worked examples follow.
1. COc1nc2ccc(Br)cc2cc1C(c1ccccc1)C(O)(CCCCCN(C)C)c1cccc(/C=C/c2ccccc2)c1 (single isomer, unassigned) :: 1.63
2. COc1nc2ccc(Br)cc2cc1C(c1ccccc1)C(O)(CCCCN(C)C)COc1ccccc1 (single isomer, unassigned) :: 2.2
3. COc1nc2ccccc2cc1C(c1cccc(-c2ccncc2)c1)C(O)(CCCCN(C)C)c1ccc2ccccc2c1 (single isomer, unassigned) :: 1.8

API: value(readout= IC90, system= M. Smegmatis (ATCC607), query= COc1nc2ccccc2cc1C(c1ccc(-c2cccs2)cc1)C(O)(CCCCN(C)C)c1ccc2ccccc2c1 (single isomer, unassigned) )
1.9

API: value(readout= IC90, system= M. Smegmatis (ATCC607), query= COc1nc2ccc(Br)cc2cc1C(c1ccccc1)C(O)(CCCCN1CCCCC1)COCc1ccccc1 (single isomer, unassigned) )
2

API: value(readout= IC90, system= M. Smegmatis (ATCC607), query= COc1nc2ccccc2cc1C(c1ccc(-c2cccnc2)cc1)C(O)(CCCCN(C)C)c1ccc2ccccc2c1 (single isomer, unassigned) )
1.8

API: value(readout= IC90, system= M. Smegmatis (ATCC607), query= COc1nc2ccc(Br)cc2cc1C(c1ccc(Cl)cc1)C(O)(CCCCN(C)C)COc1ccccc1 (single isomer, unassigned) )
1.7

API: value(readout= IC90, system= M. Smegmatis (ATCC607), query= COc1nc2ccc(Br)cc2cc1C(c1ccoc1)C(O)(CCc1ccc(F)cc1)CCN(C)C (single isomer, unassigned) )
1.71
